# Test system: rat brain cytosol binding sites of pregnenolone
# Experiment Description: Competition trials for PREG [3H] binding in brain cytosol
Where a name gives a salt, the structure may show the parent alone.
Property: competition for the binding of PREG [3H] (in words)

Enquiry: Bench note: what competition for the binding of PREG [3H] (in words) did [2H]OC1CCC2(C)C(=CCC3C2CCC2(C)C3CCC2[C@H](C)O)C1 (stereo partly drawn) [Δ5-pregnene-3β.20α-diol, Δ5-pregnene-3β, 20α-diol] show?
Return: best competitors

Enquiry: What do you get for CC(=O)C1CCC2C3CC=C4CC(OS(=O)(=O)O)CCC4(C)C3CCC12C (stereo not shown) [Preqnenolone sulfate, pregnenolone sulfate] ?
Return: best competitors

Enquiry: What do you get for CC(=O)[C@H]1CC[C@H]2[C@@H]3CCC4=CC(=O)CC[C@]4(C)[C@H]3CC[C@]12C [Progesterone] ?
Return: best competitors

* * *

Kindly supply the reported Index of Competition, MT (Beef) values for the records listed here.
# System: MT (Beef)
# Experiment Description: Index of competition with pregnenolone, MT (beef)
# Assay type: binding
# Condition Parameters: Pregnenolone = 100%
Structures can show the parent of a compound that is named as a salt.
Only the number, expressed in %, is required.

Enquiry: Bench note: what Index of Competition, MT (Beef) did CC(=O)C1CCC2C3CC=C4CC(OS(=O)(=O)c5ccc(C)cc5)CCC4(C)C3CCC12C (stereo not shown) [PREG Tosylate] show?
Return: 121

Enquiry: What do you get for CC(=O)C1[C@H](C)CC2C3CC=C4CC(O)CCC4(C)C3CCC21C (stereo partly shown) [PREG-16a-methyl] ?
Return: 88

Enquiry: What do you get for `CC(=O)OCC(=O)[C@H]1CC[C@H]2[C@@H]3CC=C4C[C@@H](O)CC[C@]4(C)[C@H]3CC[C@]12C` ?
Return: 107

Enquiry: What do you get for CC(=O)C1CC=C2C3CC=C4CC(O)CCC4(C)C3CCC21C (stereo not shown) ?
Return: 95

Enquiry: What do you get for C[C@H](O)C1CCC2C3CCC4CC(O)CCC4(C)C3CCC21C (stereo partly drawn) [5a-Pregnama 3β, 20a-diol] ?
Return: 96

* * *

# Experimental Target: MAP2-tubulin copolymers (Bos taurus)
Property: pKd
Lab note: report pKd as minus log10 of the concentration in molar units, number only.

Enquiry: Bench note: what pKd did CC(=O)C1CCC2C3CC=C4CC(O)CCC4(C)C3CCC12C (stereo not shown) show?
Return: 7.36

* * *

Kindly supply the reported R.C.R. 50 (relative competition index) values for the records listed here.
# Test system: rat brain cytosol binding sites of pregnenolone
# Experiment Description: Competition trials for PREG [3H] binding in brain cytosol
# Parameters: key: IC50(PREG)/IC50(competitor) ×100; PREG = 100
# Condition Parameters: PREG = 100, 50% reduction of specific binding of 100 nM PREG [3H], mean±standard error, n=3
Structures can show the parent of a compound that is named as a salt.

Enquiry: Bench note: what R.C.R. 50 (relative competition index) did CC(=O)C1CCC2C3CC=C4CC(O)CCC4(C)C3CCC12C (centres unmarked) show?
Return: 100

Enquiry: What do you get for CC(=O)C1CCC2C3CC=C4CC(OS(=O)(=O)O)CCC4(C)C3CCC12C (centres unmarked) [Preqnenolone sulfate, pregnenolone sulfate] ?
Return: 78.8 ± 7.0

Enquiry: What do you get for CC(=O)[C@H]1CC[C@H]2[C@@H]3CC[C@H]4C[C@@H](O)CC[C@]4(C)[C@H]3CC[C@]12C [3β-hydroxy-5α-pregnane 20-one, 3β-hydroxy-5α-pregnane-20-one] ?
Return: 18.4 ± 4.0

Enquiry: What do you get for CC(=O)[C@@]1(O)CC[C@H]2[C@@H]3CCC4=CC(=O)CC[C@]4(C)[C@H]3CC[C@@]21C [17α-hydroxy-progesterone] ?
Return: 0.79

Enquiry: What do you get for `CC(C)CCC[C@@H](C)[C@H]1CC[C@H]2[C@@H]3CC=C4C[C@@H](O)CC[C@]4(C)[C@H]3CC[C@]12C` ?
Return: 0.02

Enquiry: What do you get for [2H]OC1CCC2(C)C(=CCC3C2CCC2(C)C3CCC2[C@H](C)O)C1 (some centres unmarked) ?
Return: 68.4 ± 15.3

Enquiry: What do you get for CC(=O)[C@@]1(O)CC[C@H]2[C@@H]3CC=C4C[C@@H](O)CC[C@]4(C)[C@H]3CC[C@@]21C [17α-hydroxy-pregnenolone] ?
Return: 0.85

Enquiry: What do you get for `CC(=O)[C@H]1CC[C@H]2[C@@H]3CCC4=CC(=O)CC[C@]4(C)[C@H]3CC[C@]12C` ?
Return: 72.1 ± 17.7

* * *

# Experimental Target: fetal microtubules (Rattus norvegicus)
# Sequence (P15146 whole entry): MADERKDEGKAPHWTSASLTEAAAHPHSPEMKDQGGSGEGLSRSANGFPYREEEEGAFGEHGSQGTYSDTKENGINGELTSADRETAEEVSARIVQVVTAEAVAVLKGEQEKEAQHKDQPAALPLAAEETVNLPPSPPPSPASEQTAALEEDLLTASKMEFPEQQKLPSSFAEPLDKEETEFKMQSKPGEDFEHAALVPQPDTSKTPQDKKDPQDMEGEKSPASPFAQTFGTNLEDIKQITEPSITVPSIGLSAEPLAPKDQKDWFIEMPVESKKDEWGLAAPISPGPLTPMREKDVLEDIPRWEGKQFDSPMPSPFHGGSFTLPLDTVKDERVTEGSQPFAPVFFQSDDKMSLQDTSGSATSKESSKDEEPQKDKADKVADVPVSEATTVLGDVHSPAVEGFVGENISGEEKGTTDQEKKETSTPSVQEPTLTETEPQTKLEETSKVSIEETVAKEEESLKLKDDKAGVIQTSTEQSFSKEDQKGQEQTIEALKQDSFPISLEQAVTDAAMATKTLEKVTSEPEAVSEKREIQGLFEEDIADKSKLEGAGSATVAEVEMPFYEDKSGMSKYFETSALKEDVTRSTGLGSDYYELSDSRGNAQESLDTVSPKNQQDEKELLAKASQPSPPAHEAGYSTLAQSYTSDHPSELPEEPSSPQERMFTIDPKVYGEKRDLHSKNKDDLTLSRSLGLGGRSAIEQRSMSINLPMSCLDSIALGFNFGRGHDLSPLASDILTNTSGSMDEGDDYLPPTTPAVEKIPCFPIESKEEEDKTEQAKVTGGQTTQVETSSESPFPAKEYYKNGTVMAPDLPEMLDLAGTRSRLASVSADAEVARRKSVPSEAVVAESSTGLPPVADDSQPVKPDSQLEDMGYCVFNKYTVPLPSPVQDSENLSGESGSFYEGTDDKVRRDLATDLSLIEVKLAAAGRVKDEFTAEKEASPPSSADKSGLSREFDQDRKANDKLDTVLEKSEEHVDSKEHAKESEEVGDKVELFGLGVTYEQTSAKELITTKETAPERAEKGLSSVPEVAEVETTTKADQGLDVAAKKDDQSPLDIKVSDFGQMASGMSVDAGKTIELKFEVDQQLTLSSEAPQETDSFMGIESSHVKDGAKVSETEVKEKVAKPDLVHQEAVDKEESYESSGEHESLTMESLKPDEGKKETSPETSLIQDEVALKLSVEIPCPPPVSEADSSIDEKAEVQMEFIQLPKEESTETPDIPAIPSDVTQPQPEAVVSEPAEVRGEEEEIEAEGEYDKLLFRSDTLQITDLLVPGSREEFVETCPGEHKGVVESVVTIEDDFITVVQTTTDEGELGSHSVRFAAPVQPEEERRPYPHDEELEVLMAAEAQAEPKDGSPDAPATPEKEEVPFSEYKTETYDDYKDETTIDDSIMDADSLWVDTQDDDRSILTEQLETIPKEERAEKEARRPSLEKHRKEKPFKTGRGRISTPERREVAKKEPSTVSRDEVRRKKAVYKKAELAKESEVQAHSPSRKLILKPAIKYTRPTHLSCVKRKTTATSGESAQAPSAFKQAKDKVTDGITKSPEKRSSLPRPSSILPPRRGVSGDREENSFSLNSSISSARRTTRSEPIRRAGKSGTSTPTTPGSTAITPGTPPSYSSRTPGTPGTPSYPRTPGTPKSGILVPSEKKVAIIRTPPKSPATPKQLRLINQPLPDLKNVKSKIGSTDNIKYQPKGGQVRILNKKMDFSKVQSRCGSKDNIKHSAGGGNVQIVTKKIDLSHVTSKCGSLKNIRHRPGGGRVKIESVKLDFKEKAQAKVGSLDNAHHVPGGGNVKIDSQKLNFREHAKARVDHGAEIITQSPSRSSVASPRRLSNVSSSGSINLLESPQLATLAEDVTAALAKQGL
# Experiment Description: Competition for PREG [3H] binding to fetal microtubules (RCR)
# Condition Parameters: PREG = 100
Counter-ions that a name gives are not always drawn.
Kindly supply the reported RCR values for the records listed here.
Form field (numeric): enter value without unit.

Enquiry: Bench note: what RCR did C[C@]12CC[C@H]3[C@@H](CCC4=CC(=O)CC[C@@]43C)[C@@H]1CC[C@@H]2O [Testosterone, reference compound] show?
Return: 5.6

Enquiry: What do you get for CC(=O)[C@H]1CC[C@H]2[C@@H]3CCC4=CC(=O)CC[C@]4(C)[C@H]3CC[C@]12C [Progesterone] ?
Return: 72.1

Enquiry: What do you get for CC(=O)C1CCC2C3CC=C4CC(OS(=O)(=O)O)CCC4(C)C3CCC12C (stereo not shown) [Preqnenolone sulfate, pregnenolone sulfate] ?
Return: 78.8

Enquiry: What do you get for CC(=O)C1CCC2C3CC=C4CC(O)CCC4(C)C3CCC12C (stereo not shown) [Pregnenolone] ?
Return: 100

* * *

# Experimental Target: MAP2-tubulin copolymers (Bos taurus, UniProt A0A3Q1NAK9)
# Sequence (A0A3Q1NAK9 1-1867): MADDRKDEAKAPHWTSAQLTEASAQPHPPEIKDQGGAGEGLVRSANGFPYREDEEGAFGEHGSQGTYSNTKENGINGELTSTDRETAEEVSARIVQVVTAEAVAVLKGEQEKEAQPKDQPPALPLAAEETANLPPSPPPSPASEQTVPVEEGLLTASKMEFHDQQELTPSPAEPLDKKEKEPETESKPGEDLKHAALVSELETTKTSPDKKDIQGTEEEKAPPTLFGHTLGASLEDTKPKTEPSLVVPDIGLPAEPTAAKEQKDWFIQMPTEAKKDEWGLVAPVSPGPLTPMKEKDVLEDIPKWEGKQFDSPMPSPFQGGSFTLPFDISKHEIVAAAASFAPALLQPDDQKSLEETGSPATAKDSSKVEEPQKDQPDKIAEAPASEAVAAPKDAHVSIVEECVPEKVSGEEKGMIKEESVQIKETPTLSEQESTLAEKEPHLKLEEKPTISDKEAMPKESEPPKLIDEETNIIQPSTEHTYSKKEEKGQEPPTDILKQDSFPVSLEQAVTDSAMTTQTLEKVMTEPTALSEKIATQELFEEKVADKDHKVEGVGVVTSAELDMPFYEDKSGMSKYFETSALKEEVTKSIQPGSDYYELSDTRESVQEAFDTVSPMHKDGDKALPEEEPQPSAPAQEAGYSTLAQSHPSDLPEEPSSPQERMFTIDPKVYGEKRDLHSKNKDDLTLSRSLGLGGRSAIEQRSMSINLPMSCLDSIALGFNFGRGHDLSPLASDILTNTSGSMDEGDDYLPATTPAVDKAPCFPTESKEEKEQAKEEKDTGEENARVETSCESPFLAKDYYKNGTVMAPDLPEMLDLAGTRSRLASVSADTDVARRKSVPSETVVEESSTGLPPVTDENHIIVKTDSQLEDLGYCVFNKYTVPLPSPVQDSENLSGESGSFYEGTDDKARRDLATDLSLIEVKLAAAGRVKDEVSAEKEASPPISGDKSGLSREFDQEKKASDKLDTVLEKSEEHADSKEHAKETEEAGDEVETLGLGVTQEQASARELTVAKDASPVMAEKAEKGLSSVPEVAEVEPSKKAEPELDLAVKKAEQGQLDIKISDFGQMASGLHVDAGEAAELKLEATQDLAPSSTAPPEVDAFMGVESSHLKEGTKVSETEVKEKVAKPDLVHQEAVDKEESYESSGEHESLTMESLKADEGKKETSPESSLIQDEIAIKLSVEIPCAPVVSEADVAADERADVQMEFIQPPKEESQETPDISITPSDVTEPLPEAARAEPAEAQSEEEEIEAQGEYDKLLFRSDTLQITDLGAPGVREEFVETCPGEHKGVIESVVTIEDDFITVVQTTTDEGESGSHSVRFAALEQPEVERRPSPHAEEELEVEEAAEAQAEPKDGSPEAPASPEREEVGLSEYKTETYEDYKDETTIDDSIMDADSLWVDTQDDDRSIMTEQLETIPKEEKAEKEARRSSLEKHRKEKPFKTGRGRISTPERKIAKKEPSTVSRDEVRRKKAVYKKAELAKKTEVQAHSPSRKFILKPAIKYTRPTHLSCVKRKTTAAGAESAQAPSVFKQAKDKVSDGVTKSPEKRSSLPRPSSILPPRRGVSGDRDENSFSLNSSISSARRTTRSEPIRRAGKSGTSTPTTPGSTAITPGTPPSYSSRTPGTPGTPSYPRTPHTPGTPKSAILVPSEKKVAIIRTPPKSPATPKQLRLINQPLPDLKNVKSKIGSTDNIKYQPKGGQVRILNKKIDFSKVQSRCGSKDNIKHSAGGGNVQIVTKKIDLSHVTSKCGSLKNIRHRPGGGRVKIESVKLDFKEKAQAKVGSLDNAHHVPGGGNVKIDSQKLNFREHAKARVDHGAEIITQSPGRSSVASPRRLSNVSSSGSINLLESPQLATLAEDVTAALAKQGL
# Experiment Description: Competition for PREG [3H] binding to MAP2-tubulin copolymers (RCR)
# Set-up: species or system calf
# Condition Parameters: MAP2-tubulin copolymers; PREG = 100
# Protocol: In trials of competition between pregnenolone and different steroids for the binding studied, 0.2 ml of cytosol is incubated with 100 nM of PREG [^3H] and a 1-, 10-, 100-, and 1,000-fold excess of non-radioactive steroid. The relative competition index was determined as ratios of the concentrations of the competitor (in the […]) versus PREG causing a reduction of 50% of the specific binding of PREG [^3H]×100 (mean±standard error, n=3). […]
Structures can show the parent of a compound that is named as a salt.
Property: RCR
Form field (numeric): enter value without unit.

Enquiry: Bench note: what RCR did CC(=O)C1CCC2C3CC=C4CC(OS(=O)(=O)O)CCC4(C)C3CCC12C (centres unmarked) [Preqnenolone sulfate, pregnenolone sulfate] show?
Return: 91.5

Enquiry: What do you get for C[C@]12CC[C@H](O)CC1=CC[C@@H]1[C@@H]2CC[C@]2(C)C(=O)CC[C@@H]12 [Dehydroepiandrosterone] ?
Return: 2.3

Enquiry: What do you get for `CC(=O)[C@H]1CC[C@H]2[C@@H]3CCC4=CC(=O)CC[C@]4(C)[C@H]3CC[C@]12C` ?
Return: 81.3

Enquiry: What do you get for C[C@]12CC[C@H]3[C@@H](CCC4=CC(=O)CC[C@@]43C)[C@@H]1CC[C@@H]2O [Testosterone, reference compound] ?
Return: 2.3

Enquiry: What do you get for CC(=O)C1CCC2C3CC=C4CC(O)CCC4(C)C3CCC12C (centres unmarked) ?
Return: 100
